Recorded pKd values for a group of binders are listed next.
- measured-on: T1, human α-CGRP 1-37 (WT) (human, C-terminal amide; N-terminal biotin when captured on the SA chip; 125I-labelled in the radioligand assay)
- T1 construct: also called α-human
- T1 peptide: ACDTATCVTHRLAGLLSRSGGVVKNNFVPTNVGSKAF
- assay-method-text: Biacore, 37°C, Fab over CGRP on SA chip
Scale for pKd: -log10 of concentration given in mol/L; no unit attached.

G1 variant M39 Fab (Fab, V domains shown, Fab; constant domains as m1) VH: EVQLVESGGGLVQPGGSLRLSCAASGFTFSNYWISWVRQAPGKGLEWVAEIRSESDNYATHYAEAVKGRFTISRDNAKNSLYLQMNSLRAEDTAVYYCTVYFDYGLAIQNYWGQGTLVTVSS VL: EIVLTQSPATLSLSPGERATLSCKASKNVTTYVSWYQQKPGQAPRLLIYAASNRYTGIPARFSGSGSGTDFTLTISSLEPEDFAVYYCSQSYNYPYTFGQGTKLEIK : 8.58

Task: // returns reported pKd for input G1 variant M58 Fab (Fab, V domains shown, Fab; constant domains as m1) VH: EVQLVESGGGLVQPGGSLRLSCAASGFTFSNYWISWVRQAPGKGLEWVAEIRSKSDNIATFYAEAVKGRFTISRDNAKNSLYLQMNSLRAEDTAVYYCTVYFDYGLAIQNYWGQGTLVTVSS VL: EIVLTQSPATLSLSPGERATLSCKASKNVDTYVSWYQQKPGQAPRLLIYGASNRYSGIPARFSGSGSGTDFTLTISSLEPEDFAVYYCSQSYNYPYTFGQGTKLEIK
Result: 7.91
